Reported IC50 (µg/ml) with constrains values for a set of binders
Biological target: HIV Env of isolate 3016.v5.c45 (clade D) (HIV)
Assay: cell-based or functional assay
PARAMETER: IC50 (µg/ml) with constrains

BINDER	PARAMETER	OBSERVED
PGDM1400 (antibody, V domains shown) VH: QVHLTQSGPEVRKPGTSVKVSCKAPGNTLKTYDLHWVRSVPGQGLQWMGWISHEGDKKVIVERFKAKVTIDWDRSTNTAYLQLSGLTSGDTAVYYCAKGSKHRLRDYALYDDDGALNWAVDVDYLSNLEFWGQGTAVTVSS VL: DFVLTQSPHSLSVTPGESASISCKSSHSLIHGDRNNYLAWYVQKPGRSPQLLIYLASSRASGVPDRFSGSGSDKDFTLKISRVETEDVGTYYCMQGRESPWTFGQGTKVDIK	IC50 (µg/ml) with constrains	> 100 µg/mL
ePGDM13 (antibody, V domains shown) VH: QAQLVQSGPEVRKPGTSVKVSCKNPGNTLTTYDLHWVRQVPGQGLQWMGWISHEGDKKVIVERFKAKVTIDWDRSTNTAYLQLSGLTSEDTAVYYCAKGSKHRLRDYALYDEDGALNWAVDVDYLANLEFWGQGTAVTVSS VL: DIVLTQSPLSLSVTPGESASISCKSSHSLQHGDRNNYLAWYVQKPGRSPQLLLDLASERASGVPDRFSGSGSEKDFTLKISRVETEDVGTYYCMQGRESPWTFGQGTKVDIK	IC50 (µg/ml) with constrains	> 100 µg/mL
ePGDM9 (antibody, V domains shown) VH: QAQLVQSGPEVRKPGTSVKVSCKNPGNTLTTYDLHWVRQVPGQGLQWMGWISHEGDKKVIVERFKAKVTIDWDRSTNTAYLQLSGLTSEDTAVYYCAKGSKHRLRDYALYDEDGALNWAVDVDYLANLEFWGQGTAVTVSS VL: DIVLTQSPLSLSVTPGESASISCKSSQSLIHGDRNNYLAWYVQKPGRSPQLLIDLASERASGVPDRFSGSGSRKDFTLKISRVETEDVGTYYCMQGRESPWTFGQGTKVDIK	IC50 (µg/ml) with constrains	> 100 µg/mL
